Ref: ChEMBL document CHEMBL1201862

system: IGROV-1; experiment: NCI tumour cell line growth inhibition, 48 h
Calls of active or inactive are those of the source. Rule as the data show it: active = GI50 up to about 1.1 µM and inactive = higher.
# GI50 listing for each entry below

Please review the following examples before continuing.
compound | result
CCOC(=O)C1=NN(c2ccc([N+](=O)[O-])cc2)[C@@]2(C)C[C@]3(c4ccccc4)N(c4ccc([N+](=O)[O-])cc4)N=C(C(=O)OCC)N3c3ccccc3N12 | > 100 µM (inactive)
CC(C)(C)OC(=O)C1C(=O)NC(=O)CC1CC(OCc1ccccc1)C(COCc1ccccc1)OCc1ccccc1 (centres undefined) | 23.2 µM (inactive)
COC(=O)C1=C(O)C(C(=O)OC)[C@]2(O)[C@@H](C(=O)OC)[C@H]1[C@H](C)[C@@H](c1ccccc1)[C@@H]2C(=O)OC (some centres undefined) | 16.8 µM (inactive)
CCCCCCC(=O)c1ccc2ccccc2c1O | 27.4 µM (inactive)
CCCCCCCCCCCNC=O | 84.7 µM (inactive)
CC1=CCC(C)=Nc2nc3ccccc3n21 | > 100 µM (inactive)

// query Identify the reported GI50 for the following entry. CCCCCCCCCCCCCCCCCCNc1nc(=O)n(C2CC(OP(=O)(O)OCC3OC(n4cc(F)c(=O)[nH]c4=O)CC3O)C(CO)O2)cc1F (centres undefined)
// result 46.3 µM (inactive)

// query Identify the reported GI50 for the following entry. C[C@@H]1CC[C@@]2(NC1)O[C@H]1C[C@H]3[C@@H]4CC[C@H]5C[C@@H](O)CC[C@]5(C)[C@H]4CC[C@]3(C)[C@H]1[C@@H]2C
// result 90.2 µM (inactive)

// query Identify the reported GI50 for the following entry. Clc1cccc(C2SCc3nc4ccccc4n32)c1 (centres undefined)
// result 22.3 µM (inactive)

// query Identify the reported GI50 for the following entry. CC(C)(C)C1CC[C@H]2c3c([nH]c4ccc(Br)cc34)[C@H]3C(=O)N(c4ccccc4)C(=O)[C@H]3[C@H]2C1 (some centres undefined)
// result > 100 µM (inactive)

// query Identify the reported GI50 for the following entry. COc1ccc2c(c1)nc1n2C(c2c(F)cccc2F)SC1 (centres undefined)
// result 47.5 µM (inactive)

// query Identify the reported GI50 for the following entry. CC(C)c1ccccc1[S+]([O-])c1ccccc1C(C)(C)O (centres undefined)
// result > 100 µM (inactive)

// query Identify the reported GI50 for the following entry. CN(C)CCCN1c2ccc(O)cc2Sc2ccc(Cl)cc21 [7-HYDROXYCHLORPROMAZINE]
// result 9.84 µM (inactive)
